assay: AUC (0 to infinity) in Sprague-Dawley rat at 1 mg/kg, iv administered as single dose; type: ADME, organism-based; design: time infinity, dose 1 mg/kg, route intravenous; conditions: plasma
Quantity: AUC(0-inf) (ng·h/mL)
State just the number; it will be interpreted in ng·h/mL.

Fill in the blank: the reported AUC(0-inf) of CCC(C)(C)C(=O)Nc1cc(CN2CCOCC2)c(C)cn1 is ____.
158

----------
target: Cannabinoid receptor 2 (Homo sapiens)
Sequence (P34972 whole entry): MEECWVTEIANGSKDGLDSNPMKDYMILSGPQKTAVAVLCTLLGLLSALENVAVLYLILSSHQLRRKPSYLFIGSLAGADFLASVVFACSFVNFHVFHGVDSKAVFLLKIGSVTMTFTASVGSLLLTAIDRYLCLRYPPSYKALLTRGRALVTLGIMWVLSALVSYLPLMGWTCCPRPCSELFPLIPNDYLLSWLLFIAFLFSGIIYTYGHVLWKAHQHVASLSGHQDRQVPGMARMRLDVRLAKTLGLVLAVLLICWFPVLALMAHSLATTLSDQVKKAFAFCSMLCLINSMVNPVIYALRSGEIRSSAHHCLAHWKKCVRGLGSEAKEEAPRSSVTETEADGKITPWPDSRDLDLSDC
Quantity: pKi
Here pKi is given on a logarithmic scale as minus log10 of the concentration in mol/L.

Here is how some compounds turned out for pKi.
CCC(C)(C)C(=O)Nc1ccc(C)c(CN2CCOCC2)n1 ... 5.74
CCC(C)(C)C(=O)Nc1cc(CN2CCOCC2)cc(C)n1 ... 7.17
CCCC(C)(C)C(=O)Nc1cc(CN2CCOCC2)c(C)cn1 ... 8.28
Cc1cnc(NC(=O)C(C)(C)C)cc1CN1CCOCC1 ... 7.09
CCC1(C(=O)Nc2cc(CN3CCOCC3)c(C)cn2)CCC1 ... 7.35

Notebook entry, Cannabinoid receptor 2 (Homo sapiens) assay: pKi of CCC(C)(C)C(=O)Nc1cc(CN2CCOCC2)c(N)cn1 = ?
6.06

Notebook entry, Cannabinoid receptor 2 (Homo sapiens) assay: pKi of CCC1(C(=O)Nc2cc(CN3CCOCC3)c(C)cn2)CCCC1 = ?
7.89

Notebook entry, Cannabinoid receptor 2 (Homo sapiens) assay: pKi of Cc1cnc(NC(=O)C2(C)CCCCC2C)cc1CN1CCOCC1 (stereo not drawn) = ?
8.72

Notebook entry, Cannabinoid receptor 2 (Homo sapiens) assay: pKi of CCC1(C(=O)Nc2cc(CN3CCOCC3)c(C)cn2)CC1 = ?
7.20

Notebook entry, Cannabinoid receptor 2 (Homo sapiens) assay: pKi of CCC(C)(C)C(=O)Nc1cc(CN2CCOCC2)c(C#N)cn1 = ?
7.00

Notebook entry, Cannabinoid receptor 2 (Homo sapiens) assay: pKi of CCc1cnc(NC(=O)C(C)(C)CC)cc1CN1CCOCC1 = ?
8.10

Notebook entry, Cannabinoid receptor 2 (Homo sapiens) assay: pKi of CCC(C)(C)C(=O)Nc1cc(CN2CCOCC2)c(C)cn1 = ?
7.62

Notebook entry, Cannabinoid receptor 2 (Homo sapiens) assay: pKi of CCC1(C(=O)Nc2cc(CN3CCOCC3)c(C)cn2)CCCCC1 = ?
8.15

----------
biological target: Cannabinoid receptor 1 (Homo sapiens, UniProt P21554); assay: Inhibition of [3H][…] binding to human cloned CB1 receptor at 10 uM after 120 mins by scintillation spectroscopy
Sequence (P21554 whole entry): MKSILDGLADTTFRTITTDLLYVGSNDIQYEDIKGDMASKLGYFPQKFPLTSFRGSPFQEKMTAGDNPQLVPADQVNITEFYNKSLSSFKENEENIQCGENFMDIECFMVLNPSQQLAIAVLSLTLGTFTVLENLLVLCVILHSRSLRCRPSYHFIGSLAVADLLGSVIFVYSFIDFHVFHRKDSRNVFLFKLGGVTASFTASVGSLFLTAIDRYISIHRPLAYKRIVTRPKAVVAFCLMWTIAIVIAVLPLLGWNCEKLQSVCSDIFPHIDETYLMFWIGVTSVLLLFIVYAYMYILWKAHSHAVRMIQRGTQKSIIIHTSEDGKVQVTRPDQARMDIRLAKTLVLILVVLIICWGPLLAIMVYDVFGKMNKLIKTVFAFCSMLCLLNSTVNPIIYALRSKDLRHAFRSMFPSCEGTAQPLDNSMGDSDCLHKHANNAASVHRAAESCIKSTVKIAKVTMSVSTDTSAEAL
Category key, based on recorded inhibition: class 0 (below 10%), class 1 (10% to below 20%), class 2 (20% or more)

Some solved cases for reference:
CCC(C)(C)C(=O)Nc1cc(CN2CCOCC2)c(C)cc1C ... class 1
CCC1(C(=O)Nc2cc(CN3CCOCC3)c(C)cn2)CCCCC1 ... class 2
CCC1(C(=O)Nc2cc(CN3CCOCC3)c(C)cn2)CCC1 ... class 1
CCC(C)(C)C(=O)Nc1ccc(C)c(CN2CCOCC2)c1 ... class 0
CCC1(C(=O)Nc2cc(CN3CCOCC3)c(C)cn2)CC1 ... class 2
CCC(C)(C)C(=O)Nc1cc(CN2CCOCC2)c(C#N)cn1 ... class 1
Cc1cnc(NC(=O)C(C)(C)C)cc1CN1CCOCC1 ... class 2
CCC(C)(C)C(=O)Nc1ccc(C)c(CN2CCOCC2)n1 ... class 2
CCC(C)(C)C(=O)Nc1cc(CN2CCOCC2)cc(C)n1 ... class 0

Please look at the following compound next.
Class? Entry: CCC(C)(C)C(=O)Nc1cnc(C)c(CN2CCOCC2)c1
class 0

----------
assay: Volume of distribution at steady state in Sprague-Dawley rat at 1 mg/kg, iv administered as single dose; type: ADME, organism-based; design: dose 1 mg/kg, route intravenous; settings: in vivo, read-out: Vdss
Quantity: Vd (L/kg)
State just the number; it will be interpreted in L/kg.

Fill in the blank: the reported Vd of CCC(C)(C)C(=O)Nc1cc(CN2CCOCC2)c(C)cn1 is ____.
3.5

----------
Listing of recorded Ratio Ki by entry.
species on record: Homo sapiens; assay: Selectivity ratio of Ki for human cloned CB1 receptor to Ki for human cloned CB2 receptor
API doc: respond with a numeric literal and nothing else, no unit.

Here is how some compounds turned out for Ratio Ki.
CCC1(C(=O)Nc2cc(CN3CCOCC3)c(C)cn2)CCCC1 ... 85
CCc1cnc(NC(=O)C(C)(C)CC)cc1CN1CCOCC1 ... 550

As a next step, examine the compound that follows.
Fill in the blank: the reported Ratio Ki of CCC(C)(C)C(=O)Nc1cc(CN2CCOCC2)c(C)cn1 is ____.
160

----------
target: UniProtKB Q9QZN9; experiment: Agonist activity at CB2 receptor in rat cerebellar membrane assessed as WIN-55212-2-stimulated [35S]GTPgammaS binding after 6 hrs by scintillation spectrometry
Sequence (Q9QZN9 whole entry): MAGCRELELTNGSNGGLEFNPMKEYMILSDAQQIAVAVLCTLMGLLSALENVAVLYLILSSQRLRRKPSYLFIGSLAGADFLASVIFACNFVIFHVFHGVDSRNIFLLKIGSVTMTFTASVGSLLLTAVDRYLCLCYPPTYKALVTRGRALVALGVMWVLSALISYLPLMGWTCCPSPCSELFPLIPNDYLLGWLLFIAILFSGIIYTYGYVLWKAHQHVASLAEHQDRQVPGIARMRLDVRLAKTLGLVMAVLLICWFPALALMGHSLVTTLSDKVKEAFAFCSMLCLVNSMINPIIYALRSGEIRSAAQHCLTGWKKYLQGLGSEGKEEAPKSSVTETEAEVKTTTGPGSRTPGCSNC
Listing of recorded log10 of EC50 by entry.
Field: value | Transform: log10 | Quantity: EC50 | Unit: nM

Here is how some compounds turned out for log10 of EC50.
CCC1(C(=O)Nc2cc(CN3CCOCC3)c(C)cn2)CCC1 ... 2.15
CCC1(C(=O)Nc2cc(CN3CCOCC3)c(C)cn2)CCCCC1 ... 0.94
Cc1cnc(NC(=O)C(C)(C)C)cc1CN1CCOCC1 ... 1.85
CCC1(C(=O)Nc2cc(CN3CCOCC3)c(C)cn2)CCCC1 ... 1.11
CCC1(C(=O)Nc2cc(CN3CCOCC3)c(C)cn2)CC1 ... 1.79

As a next step, examine the compound that follows.
Fill in the blank: the reported log10 of EC50 of CCc1cnc(NC(=O)C(C)(C)CC)cc1CN1CCOCC1 is ____.
0.98
